Compiled notes: published log10(IC50) values involving 3-hydroxy-3-methylglutaryl-coenzyme A reductase (Rattus norvegicus, UniProt P51639).
The common logarithm of IC50 in nM is what is listed.

**Query** Item under review: "O=C(O)CC(O)(CCCCCCCCCCC1CCCCC1)CC(=O)O" . Reported log10(IC50)?
**Result** 4.72

**Query** Item under review: CCC(C)C(=O)OC1CCC(=NOCc2cnoc2)C2=CC(=O)C(C)C(CCC(=O)CC(O)CC(=O)O)C21 (centres unmarked) . Reported log10(IC50)?
**Result** 1.31

**Query** Item under review: C[C@@H]1C[C@H](OC(=O)C(C)(C)Oc2ccc(CCNC(=O)c3ccc(Cl)cc3)cc2)CC(C)(C)C1 (relative stereo) . Reported log10(IC50)?
**Result** 1.41

**Query** Item under review: "CC(=O)S[C@H]1CC(=O)O[C@H](COc2c(C)cc(C)cc2CCCOc2ccc(F)cc2)C1" . Reported log10(IC50)?
**Result** 2.48

**Query** Item under review: O=C1C[C@@H](c2ccccc2CO)C[C@H](CCc2ccc(Cl)cc2Cl)O1 (relative stereo) . Reported log10(IC50)?
**Result** 4.62

**Query** Item under review: CC(=O)N[C@@H](CC(=O)O)C(=O)OC1CC(C)CC(C)(C)C1 (some centres unmarked) . Reported log10(IC50)?
**Result** 2.70

**Query** Item under review: C[C@@H]1C=C[C@H](C)[C@H](c2ccccc2)[C@H]1/C=C/C1CC(O)CC(=O)O1 (some centres unmarked) . Reported log10(IC50)?
**Result** 4.46

**Query** Item under review: Cc1c(/C=C/[C@@H](O)C[C@@H](O)CC(=O)O)c(-c2ccc(F)cc2)c(C)n1-c1ccccc1 (relative stereo) . Reported log10(IC50)?
**Result** 2.08

**Query** Item under review: COC(=O)C[C@H](O)C[C@H](O)/C=C/c1c(-c2ccc(F)cc2)cn(-c2ccccc2)c1C(C)C (relative stereo) . Reported log10(IC50)?
**Result** 0.90

**Query** Item under review: "C=CCC(CC)(CC)C(=O)O[C@H]1C[C@H](O)C=C2C=C[C@H](C)[C@H](CC[C@@H](O)C[C@@H](O)CC(=O)O)[C@H]21" . Reported log10(IC50)?
**Result** 1.54

**Query** Item under review: O=C1C[C@H](c2ccc(-c3ccccc3)cc2)C[C@@H](CCc2ccc(Cl)cc2Cl)O1 (relative stereo) . Reported log10(IC50)?
**Result** 4.53

**Query** Item under review: Cc1cc(-c2ccc3occ(C(C)C)c3c2/C=C/[C@@H](O)C[C@@H](O)CC(=O)O)ccc1F (relative stereo) . Reported log10(IC50)?
**Result** 1.51

**Query** Item under review: O=C1C[C@@H](O)C[C@H](CCn2c(-c3ccc(F)cc3)c(-c3ccccc3)c(C(=O)Nc3ccccc3)c2C(F)(F)F)O1 (relative stereo) . Reported log10(IC50)?
**Result** 1.30

**Query** Item under review: C[C@@H]1C[C@H](OC(=O)C(C)(C)Oc2ccc(C(=O)Cc3ccccc3)cc2)CC(C)(C)C1 (relative stereo) . Reported log10(IC50)?
**Result** 1.52

----------
Compiled notes: published pIC50 values involving 3-hydroxy-3-methylglutaryl-coenzyme A reductase (Rattus norvegicus, UniProt P51639).
// pIC50 is dimensionless: -log10 of concentration (M)

**Query** Item under review: "CCCCC(C)(C)C(=O)O[C@H]1C[C@H](O)C=C2C=C[C@H](C)[C@H](CC[C@@H](O)C[C@@H](O)CC(=O)O)[C@H]21" . Reported pIC50?
**Result** 7.48

**Query** Item under review: CCOC(=O)C[C@H](O)C[C@H](O)/C=C/c1c(C)cc2ccccc2c1-c1cc(C)cc(C)c1 (relative stereo) . Reported pIC50?
**Result** 7.10

**Query** Item under review: CC(C)c1c(CC[C@@H](O)C[C@@H](O)CC(=O)O)c(-c2ccc(F)cc2)cn1C(C)C (racemic) . Reported pIC50?
**Result** 8.52

----------
Compiled notes: published pIC50 values involving 3-hydroxy-3-methylglutaryl-coenzyme A reductase (Rattus norvegicus).
// pIC50 is dimensionless: -log10 of concentration (M)

**Query** Item under review: CCC1(CC)C(/C=C/C(O)CC(O)CC(=O)O)=C(c2ccc(F)cc2)c2ccccc21 (centres unmarked) . Reported pIC50?
**Result** 5.33

**Query** Item under review: Cc1c(/C=C/[C@@H]2C[C@@H](O)CC(=O)O2)n(-c2ccccc2)c2ccccc12 (relative stereo) . Reported pIC50?
**Result** 5.89

**Query** Item under review: COC(=O)C[C@H](O)C[C@H](O)CCc1c(-c2ccc(F)cc2)c(C)n(-c2ccccc2)c1C (racemic) . Reported pIC50?
**Result** 7.10

**Query** Item under review: C[C@@H]1CC[C@H](C)[C@H](c2ccc(F)cc2)[C@H]1CCC(O)CC(O)CC(=O)O (some centres unmarked) . Reported pIC50?
**Result** 5.14

**Query** Item under review: COC(=O)C[C@H](O)C[C@H](O)CCc1c(-c2ccc(F)cc2)c(C)n(-c2ccccc2)c1C(C)C (racemic) . Reported pIC50?
**Result** 8.10
